MEASUREMENT TARGET: CD94/NKG2C (Homo sapiens, UniProt P26717+Q13241)
Sequence (P26717 94-231 limits assumed): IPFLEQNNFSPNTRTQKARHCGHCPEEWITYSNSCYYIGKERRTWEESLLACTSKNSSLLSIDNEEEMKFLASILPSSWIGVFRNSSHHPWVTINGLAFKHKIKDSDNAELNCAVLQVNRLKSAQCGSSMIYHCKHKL
Sequence (Q13241 32-179 limits assumed): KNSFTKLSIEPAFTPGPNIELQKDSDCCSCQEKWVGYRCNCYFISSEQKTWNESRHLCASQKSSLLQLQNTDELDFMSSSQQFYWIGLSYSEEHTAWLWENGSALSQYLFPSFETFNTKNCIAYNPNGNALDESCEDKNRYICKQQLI
ASSAY NAME: Steady-state surface plasmon resonance of peptide-HLA-E complex with CD94/NKG2C
Format: binding
CONDITION INFO: steady-state SPR; CD94/NKG2C analyte concentration 0 μM
Where no end group is shown, it is not given here.
Hi! Could you tag entries with Binding of peptide-HLA-E complexes to CD94/NKG2C normalized to a theoretical Rmax below 0 as Criterion met, and those at or above as Criterion not met? Much appreciated.

INSERT INTO measurements (macromolecule_sequence, measurement_target, qualitative_label) VALUES
  ('TLPKRGLFL [human2, TLPKRGLFL]', 'CD94/NKG2C (Homo sapiens, UniProt P26717+Q13241)', 'Criterion met');

Incoming: For this sequence, is Binding of peptide-HLA-E complexes to CD94/NKG2C normalized to a theoretical Rmax lower than 0? TGPWRSLWI [human3, TGPWRSLWI]
Outgoing: Criterion not met

Incoming: Same read-out for QMPSRSLLF [human1, QMPSRSLLF] ?
Outgoing: Criterion met

Incoming: TAPARTMFL [human13, TAPARTMFL] ?
Outgoing: Criterion not met

Taken from patent US20240092835A1.
